- Test system: TNF-α
- assay.comment: Cytokine inhibitory activity in cells: LPS-induced TNF-α in RAW 264.7
- Type: cell-based, murine
- conditions.used: Mus musculus, RAW264.7; RAW 264.7, LPS 1 μg/mL; test conc. 1 mM; read-out: TNF-α Inhibition Rate (%)
Criterion: inhibition at 1000 µM meeting or surpassing 40%. Met: Met. Not met: Not met.

Examples with answers:
INSERT INTO assay_data (smiles_code, assigned_category) VALUES
  ('COc1nc(C)cc2c1C(=O)OCC2', 'Not met'),
  ('Cc1cc2c(c(-c3ccccn3)n1)C(=O)OCC2', 'Not met'),
  ('O=C1OCCc2cc(-c3ccccc3)ncc21', 'Met'),
  ('Cc1cc2c(c(-c3cccs3)n1)C(=O)OCC2', 'Met'),
  ('Cc1cc2c(c(N)n1)C(=O)OCC2', 'Met');

Ask | Identify whether the reported inhibition at 1000 µM of the following molecule is 40% or greater: `Cc1cc2c(c(Nc3ccc(F)cc3)n1)C(=O)OCC2`
Reply | Not met

Ask | Please indicate if the recorded inhibition at 1000 µM for `Cc1ncc2c(c1-c1ccccc1)CCOC2=O` meets or exceeds 40%.
Reply | Met

Ask | Textbook exercise: given the entry `Cc1nc(-c2ccc(N(C)C)cc2)cc2c1C(=O)OCC2` , state whether its inhibition at 1000 µM is greater than or equal to 40%.
Reply | Not met

====

Each record here notes measured TNF-α Inhibition Rate (%).
- System: TNF-α
- assay.comment: Cytokine inhibitory activity in cells: LPS-induced TNF-α in RAW 264.7
- Assay type: cell-based, murine
- conditions.used: RAW 264.7, LPS 1 μg/mL; test conc. 10 μM
- Method: General reagents used were purchased from Sigma-Aldrich chem. Co. and cytokine inhibitory activities were tested as follows. […] The apparatus used ELISA reader (Spectra max-Plus 384, Molecular Device, USA). Murine macrophage cell line RAW 264.7 was kindly provided by Korean Tissue Culture Center (KTCC). […] The supernatant was recovered and the amount of murine TNF-α on the medium was quantitated using ELISA kit. […]
Numbers only; they are read as %.

Before answering, review these 3 worked examples.
INSERT INTO assay_data (molecule, uom, result_value) VALUES
  ('CC(=O)Oc1nc(-c2ccccc2)cc2c1C(=O)OCC2 [Ex. 78]', '%', 85),
  ('CC(=O)Oc1nc(C)cc2c1C(=O)OCC2 [Ex. 21]', '%', 15),
  ('Cc1nc(-c2ccc3c(c2)OCO3)cc2c1C(=O)OCC2 [Ex. 99]', '%', 19);

Ask | For the molecule O=C1NC(c2ccccc2)Cc2ccncc21 (stereo not shown) [Ex. 120b] , report TNF-α Inhibition Rate (%).
Reply | 30

Ask | Give the value of TNF-α Inhibition Rate (%) reported for the following: O=C1NCCc2ccncc21 [Ex. 116, 3,4-dihydro-2H-[2,7]naphtyridine-1-on]
Reply | 10

Ask | Answer with reported TNF-α Inhibition Rate (%) of O=C1c2cnccc2CCN1Cc1ccccc1 [Ex. 117]
Reply | 18

Ask | Tell me its TNF-α Inhibition Rate (%) given COc1ccc(CN2CCc3ccncc3C2=O)cc1 [Ex. 115] as the entry.
Reply | 59
